These measurements were taken from the RNAGym collection of RNA variant scans (doi:10.7554/elife.90254).

B1: OR4K15 (parent)
chain: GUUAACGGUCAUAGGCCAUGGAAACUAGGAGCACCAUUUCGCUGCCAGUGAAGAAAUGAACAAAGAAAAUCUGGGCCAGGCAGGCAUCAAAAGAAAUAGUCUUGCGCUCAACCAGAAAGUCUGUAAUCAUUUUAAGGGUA

Variants of: B1
Test: self-cleavage, relative activity (ratio to wild type); higher = more cleavage; in vitro, sequencing; the parent is a self-cleaving ribozyme
Reported self-cleavage values follow for various variants
Field format: numeric only.

sequence-chain | self-cleavage
GUUAACGGUCAUAGGCCAUGGAGACUAGGAGCACCAUUUCGCUGCCAGUGAAGAAAUGAACAAAGAAAAUCUGGGCCAGGCAGGCAUCAAAAGAAAUAGUCUUGCGCUCAACCAGAAAGCCUGUAAUCAUUUUAAGGGUA [A23G U120C] | 0.96

What value of self-cleavage has been reported for the following variant? GUUAACGGUCAUAGGCCAUGGAAACUAGGAGCACCAUCUCGCUGCCAGUGAAGAAAUGAACAAAGAAAAUCAGGGCCAGGCAGGCAUCAAAAGAAAUAGUCUUGCGCUCAACCAGAAAGUCUGUAAUCAUUUUAAGGGUA [U38C U72A] 0.11

# self-cleavage lookup, item GUUAACGGUCAUAGGCCAUGGAAACUAGGAGCACCAUUUCGCUGCCAGUGAAGAAAUGAACAAAGACAAUCUGGGCCAGGCAGGCAUCAAAAGAAAUAGUCUUGCGCUCAACCAGAGAGUCUGUAAUCAUUUUAAGGGUA [A67C A117G] 2.74

Could you tell me which self-cleavage is on file for GUUAACGGUCAUAGGCCAUGGAAACUAGGAGCACCAUUUCGCUGCCAGUGAGGAAAUGAACAAAGAAAAUCUGGGCCAGGCAGGCAUCAAAAGAAAUAGUCUUGCGCUCAACCAGAAAGUCUGUAAUCACUUUAAGGGUA [A52G U130C] ? 0.75

Quick one: self-cleavage of GUUAACGGUCAUAGGCCAUGGAAACUAGGAGCACCAUUUCGCUGCCAGUGAAGAAAUGAACAAAGAAAGUCUGGGCCAGGCAGGCAUCAAGAGAAAUAGUCUUGCGCUCAACCAGAAAGUCUGUAAUCAUUUUAAGGGUA [A69G A91G] ? 1.21

Find the recorded self-cleavage belonging to GUUAACGGUCAUAGGCCAUGGAAACUAGGAGCACCAUUUCGCUGCCAGUGAAGAAAUGAACAAAGAAAAUCUGGGCCGGGCAGGCAUCAAAAGAAAUAGUCUUGCGCUCAACCAGAAAGUCUGUAAUCACUUUAAGGGUA [A78G U130C] and report it. 0.3
